Origin of values: patent US20240066131A1

Give measured FPN EC50 for each item. Keep answers brief.
Target: T1, human ferroportin (SLC40A1) fused in frame with GFP, stably expressed in HEK293 cells (human, UniProt Q9NP59 1-571)
T1 sequence (looked up): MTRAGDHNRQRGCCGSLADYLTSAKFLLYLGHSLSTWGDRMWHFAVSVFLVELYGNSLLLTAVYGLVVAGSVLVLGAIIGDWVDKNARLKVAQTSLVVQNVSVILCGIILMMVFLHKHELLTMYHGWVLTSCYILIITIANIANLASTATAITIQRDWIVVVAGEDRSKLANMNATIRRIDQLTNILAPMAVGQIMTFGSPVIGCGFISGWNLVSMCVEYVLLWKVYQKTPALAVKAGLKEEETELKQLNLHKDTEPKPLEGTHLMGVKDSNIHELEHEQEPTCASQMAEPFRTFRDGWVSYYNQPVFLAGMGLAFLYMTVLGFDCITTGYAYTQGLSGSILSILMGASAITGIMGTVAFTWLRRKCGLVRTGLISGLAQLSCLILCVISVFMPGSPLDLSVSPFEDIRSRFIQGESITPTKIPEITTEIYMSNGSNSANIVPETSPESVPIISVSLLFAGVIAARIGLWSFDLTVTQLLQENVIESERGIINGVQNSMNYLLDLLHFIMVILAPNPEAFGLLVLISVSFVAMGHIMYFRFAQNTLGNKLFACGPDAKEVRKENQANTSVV
Assay: cell-based or functional assay
Starred links: 1 amine or outer side, 2 acyl side, 3 side chain; linkers in the order of their positions; H or OH if unused. Non-standard residues stand in square brackets, D forms with d. Groups on a side chain read outwards from the residue. *: point of attachment. Tet2 = (S)-2-amino-4-(1H-tetrazol-5-yl)butanoic acid, O=C([C@H](CCc1nn[nH]n1)N[*:1])[*:2]; Dip = N[C@H](C(=O)O)C(c1ccccc1)c1ccccc1; Palmitoyl = CCCCCCCCCCCCCCCC(=O)*; β3hF = N[C@H](CC(=O)O)Cc1ccccc1; Tle = CC(C)(C)[C@H](N)C(=O)O; Isovaleryl = CC(C)CC(=O)*; Ahx = NCCCCCC(=O)O
Give just the numeric value; nM need not be written.

Prompt: Fill in the blank: the reported FPN EC50 of Isovaleryl-ETH[Dip]PAI[β3hF][dK]A-NH2 (SMILES CC[C@H](C)[C@H](NC(=O)[C@H](C)NC(=O)[C@@H]1CCCN1C(=O)[C@@H](NC(=O)[C@H](Cc1c[nH]cn1)NC(=O)[C@@H](NC(=O)[C@H](CCC(=O)O)NC(=O)CC(C)C)[C@@H](C)O)C(c1ccccc1)c1ccccc1)C(=O)N[C@H](CC(=O)N[C@H](CCCCN)C(=O)N[C@@H](C)C(N)=O)Cc1ccccc1) [Isovaleric Acid-E-T-H-[Dpa]-P-A-I-[bhPhe]-[(D)Lys]-A-NH2] is ____.
Completion: 915

Prompt: Try this binder next: {3,3,3‑Trifluoro propionic acid}-ETH[Dip]PIIK(Ac)[β3hF]-NH2 [[3,3,3-Trifluoro propionic acid]-E-T-H-[Dpa]-P-I-I-[Lys(Ac)]-[bhPhe]-NH2]
Completion: 5740

Prompt: Try this binder next: Isovaleryl-[Tet2]TH[Dip]PIIK([Ahx-Palmitoyl])[β3hF]-NH2 (SMILES CCCCCCCCCCCCCCCC(=O)NCCCCCC(=O)NCCCC[C@H](NC(=O)[C@@H](NC(=O)[C@@H](NC(=O)[C@@H]1CCCN1C(=O)[C@@H](NC(=O)[C@H](Cc1c[nH]cn1)NC(=O)[C@@H](NC(=O)[C@H](CCc1nn[nH]n1)NC(=O)CC(C)C)[C@@H](C)O)C(c1ccccc1)c1ccccc1)[C@@H](C)CC)[C@@H](C)CC)C(=O)N[C@H](CC(N)=O)Cc1ccccc1) [Isovaleric Acid-[Tet2]-T-H-[Dpa]-P-I-I-[Lys(Ahx_Palm)]-[bhPhe]-NH2]
Completion: 376

Prompt: Try this binder next: Isovaleryl-ETH[Dip]PAIK(Ac)-NH2 (SMILES CC[C@H](C)[C@H](NC(=O)[C@H](C)NC(=O)[C@@H]1CCCN1C(=O)[C@@H](NC(=O)[C@H](Cc1c[nH]cn1)NC(=O)[C@@H](NC(=O)[C@H](CCC(=O)O)NC(=O)CC(C)C)[C@@H](C)O)C(c1ccccc1)c1ccccc1)C(=O)N[C@@H](CCCCNC(C)=O)C(N)=O) [Isovaleric Acid-E-T-H-[Dpa]-P-A-I-[Lys(Ac)]-NH2]
Completion: 1040

Prompt: Try this binder next: XKTHXPAIEXXR (N-term Isovaleric Acid; Dpa4; bhPhe9; Lys(Ahx_Palm)10; C-term NH2; K and E cyclized (lactam)) [Isovaleric Acid-K-T-H-[Dpa]-P-A-I-E-[bhPhe]-[Lys(Ahx_Palm)]-R-NH2; (K and E cyclized)]
Completion: 13.8

Prompt: Try this binder next: Isovaleryl-ETH[Dip]P[Tle]IK([Ahx-Palmitoyl])[β3hF]-NH2 (SMILES CCCCCCCCCCCCCCCC(=O)NCCCCCC(=O)NCCCC[C@H](NC(=O)[C@@H](NC(=O)[C@@H](NC(=O)[C@@H]1CCCN1C(=O)[C@@H](NC(=O)[C@H](Cc1c[nH]cn1)NC(=O)[C@@H](NC(=O)[C@H](CCC(=O)O)NC(=O)CC(C)C)[C@@H](C)O)C(c1ccccc1)c1ccccc1)C(C)(C)C)[C@@H](C)CC)C(=O)N[C@H](CC(N)=O)Cc1ccccc1) [Isovaleric Acid-E-T-H-[Dpa]-P-[t-BuGly]-I-[Lys(Ahx_Palm)]-[bhPhe]-NH2]
Completion: 40.3
